# Lookup of reported Ki keyed by entry
Target: Neuronal acetylcholine receptor; alpha3/beta4 (Homo sapiens, UniProt P30926+P32297)
Sequence (P30926 whole entry): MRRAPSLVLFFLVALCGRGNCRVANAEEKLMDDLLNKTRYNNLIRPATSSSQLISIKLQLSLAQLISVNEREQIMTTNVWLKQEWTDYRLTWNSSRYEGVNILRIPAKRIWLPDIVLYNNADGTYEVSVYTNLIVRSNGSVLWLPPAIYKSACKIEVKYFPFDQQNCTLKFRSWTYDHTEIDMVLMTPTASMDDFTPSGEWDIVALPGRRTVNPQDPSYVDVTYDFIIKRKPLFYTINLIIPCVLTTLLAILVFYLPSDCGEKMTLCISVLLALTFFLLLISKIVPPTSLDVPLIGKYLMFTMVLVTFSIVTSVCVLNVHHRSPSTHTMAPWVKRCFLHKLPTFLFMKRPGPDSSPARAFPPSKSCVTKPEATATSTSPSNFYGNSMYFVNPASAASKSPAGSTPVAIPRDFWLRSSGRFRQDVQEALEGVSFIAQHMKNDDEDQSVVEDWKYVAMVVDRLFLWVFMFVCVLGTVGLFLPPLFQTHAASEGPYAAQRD
Sequence (P32297 whole entry): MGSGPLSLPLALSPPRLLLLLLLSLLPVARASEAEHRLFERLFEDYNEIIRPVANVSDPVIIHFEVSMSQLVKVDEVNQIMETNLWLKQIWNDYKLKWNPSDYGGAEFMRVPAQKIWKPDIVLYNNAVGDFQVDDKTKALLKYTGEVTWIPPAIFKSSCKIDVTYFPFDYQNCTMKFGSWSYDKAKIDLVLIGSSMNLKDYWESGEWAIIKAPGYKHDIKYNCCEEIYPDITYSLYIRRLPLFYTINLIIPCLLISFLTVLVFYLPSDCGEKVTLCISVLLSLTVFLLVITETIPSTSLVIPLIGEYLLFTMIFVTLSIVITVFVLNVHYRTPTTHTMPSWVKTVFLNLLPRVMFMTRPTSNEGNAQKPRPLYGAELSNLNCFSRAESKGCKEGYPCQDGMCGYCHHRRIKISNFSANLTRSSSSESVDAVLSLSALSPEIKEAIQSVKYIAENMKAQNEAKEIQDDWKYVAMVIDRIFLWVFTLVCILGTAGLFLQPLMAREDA
Assay: Displacement of [3H]epibatidine from human alpha3beta4 nAChR expressed in CHO cells after 2 hrs by liquid scintillation counting
Assay type: cell-based

Previously resolved entries follow.
# compound, measurement-kind, measured-result
rows = [
    ("O=C(c1ccc(Br)o1)N1CC2CNCC2C1 (centres undefined)", "Ki", "7.2 µM"),
    ("O=C(c1ccncc1)N1CC2CNC(C2)C1 (centres undefined)", "Ki", "1.5 µM"),
    ("O=C(c1ccco1)N1CC2CNCC2C1 (centres undefined)", "Ki", "72 µM"),
]

(Q) Give the reported value of Ki for this record: O=C(c1ccoc1)N1CC2CNCC2C1 (centres undefined)
(A) 4.8 µM

(Q) Note Ki for the compound shown: Cc1ncoc1C(=O)N1CC2CNCC2C1 (centres undefined)
(A) 22 µM

(Q) State, in one line, measured Ki of O=C(c1ccco1)N1CC2CNCC(C2)C1
(A) 8.1 µM

Entry source: ChEMBL document CHEMBL2176988
